Catalogue of compounds with associated half-life
test-protocol: Stability (half-life) in phosphate buffer of pH 3 at 70° C.
Type: physicochemical
condition-description: acidic aqueous solution
Description: The peptides of the present invention may be 2 to 15 times as stable as aspartame when measured in a phosphate buffer of pH 3 at 70° C. This range in stability as compared to aspartame includes all specific values and subranges therebetween. […]

smiles-text	result-value
CC[C@@H](C)[C@@H](NC(=O)[C@@H](N)CC(=O)O)C(=O)N[C@@H](CSC)c1ccccc1	~27.1 days

Attention now shifts to the item below.
The compound listed as "COC(=O)C[C@H](NC(=O)[C@H](NC(=O)[C@@H](N)CC(=O)O)C(C)C)c1ccccc1" shows half-life equal to ~5.79 days
